system.name: ABCB1 (Homo sapiens, UniProt P08183)
Sequence (P08183 whole entry): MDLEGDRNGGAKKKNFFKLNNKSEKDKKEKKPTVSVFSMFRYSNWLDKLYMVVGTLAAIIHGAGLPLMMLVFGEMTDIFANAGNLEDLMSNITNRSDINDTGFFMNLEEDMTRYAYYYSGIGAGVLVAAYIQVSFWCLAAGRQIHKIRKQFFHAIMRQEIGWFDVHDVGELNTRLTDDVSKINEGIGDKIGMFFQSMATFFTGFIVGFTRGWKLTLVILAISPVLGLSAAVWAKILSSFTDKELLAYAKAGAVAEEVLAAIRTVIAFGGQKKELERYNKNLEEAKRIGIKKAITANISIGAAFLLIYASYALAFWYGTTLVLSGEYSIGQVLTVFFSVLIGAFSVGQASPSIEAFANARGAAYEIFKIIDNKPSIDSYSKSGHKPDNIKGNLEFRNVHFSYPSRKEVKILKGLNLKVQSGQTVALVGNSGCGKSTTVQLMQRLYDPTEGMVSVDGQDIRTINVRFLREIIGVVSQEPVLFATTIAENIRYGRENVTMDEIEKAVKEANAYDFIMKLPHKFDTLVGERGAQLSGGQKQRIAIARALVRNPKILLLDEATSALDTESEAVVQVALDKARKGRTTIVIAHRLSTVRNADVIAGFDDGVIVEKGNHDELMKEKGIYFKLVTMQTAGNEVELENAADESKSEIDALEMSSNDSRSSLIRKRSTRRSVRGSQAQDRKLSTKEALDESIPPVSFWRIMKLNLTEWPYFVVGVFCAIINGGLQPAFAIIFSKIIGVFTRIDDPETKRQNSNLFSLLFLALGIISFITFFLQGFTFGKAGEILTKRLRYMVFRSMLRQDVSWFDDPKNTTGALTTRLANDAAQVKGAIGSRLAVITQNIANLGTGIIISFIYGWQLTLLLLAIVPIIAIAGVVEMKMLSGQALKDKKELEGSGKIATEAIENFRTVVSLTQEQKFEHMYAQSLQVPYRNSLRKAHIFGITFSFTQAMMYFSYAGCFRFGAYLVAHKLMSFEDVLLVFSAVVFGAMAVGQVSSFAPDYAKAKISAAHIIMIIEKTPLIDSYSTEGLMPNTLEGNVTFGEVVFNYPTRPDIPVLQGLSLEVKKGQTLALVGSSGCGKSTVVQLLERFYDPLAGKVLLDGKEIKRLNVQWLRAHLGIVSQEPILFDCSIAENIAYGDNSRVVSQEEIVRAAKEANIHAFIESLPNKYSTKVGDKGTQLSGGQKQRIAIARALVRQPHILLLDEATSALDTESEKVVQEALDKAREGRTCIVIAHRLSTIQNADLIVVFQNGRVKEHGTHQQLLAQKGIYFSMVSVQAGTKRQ
test.summary: Potency index, ratio of cyclosporine A IC50 to compound IC50 for ABCB1 in human A2780/ADR cells
Format: cell-based
conditions: read-out: Ratio IC50
measurement.kind: selectivity ratio
Numbers only.

Recorded selectivity ratio (compound CCCc1ccc(C(=O)Nc2ccccc2-c2nnn(-c3ccc(O)cc3)n2)cc1 ): 3

###

Task for the reader: assign each of the following compounds its reported Emax at 2 h, 10 µM.
system.name: ABCG2 (Homo sapiens, UniProt Q9UNQ0)
Sequence (Q9UNQ0 whole entry): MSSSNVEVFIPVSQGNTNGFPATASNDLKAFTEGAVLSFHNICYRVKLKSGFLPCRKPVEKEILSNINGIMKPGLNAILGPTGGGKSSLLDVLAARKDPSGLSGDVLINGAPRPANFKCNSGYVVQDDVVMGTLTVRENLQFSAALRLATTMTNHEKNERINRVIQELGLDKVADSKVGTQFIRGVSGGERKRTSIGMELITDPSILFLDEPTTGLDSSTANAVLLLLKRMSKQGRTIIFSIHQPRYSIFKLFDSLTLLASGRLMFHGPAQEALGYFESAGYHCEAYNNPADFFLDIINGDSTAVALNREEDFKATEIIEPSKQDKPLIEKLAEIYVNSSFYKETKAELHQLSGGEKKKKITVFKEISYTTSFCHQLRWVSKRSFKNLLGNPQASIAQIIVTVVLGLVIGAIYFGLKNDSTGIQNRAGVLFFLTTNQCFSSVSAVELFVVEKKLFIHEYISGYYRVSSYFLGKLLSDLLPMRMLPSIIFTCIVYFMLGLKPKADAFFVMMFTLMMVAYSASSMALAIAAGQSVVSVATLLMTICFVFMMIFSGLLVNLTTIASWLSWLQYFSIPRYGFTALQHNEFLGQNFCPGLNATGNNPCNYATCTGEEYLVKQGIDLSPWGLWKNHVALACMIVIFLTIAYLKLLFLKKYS
test.summary: Inhibition of recombinant human GFP-fused ABCG2 expressed in MDCK2 cells assessed as reduction in Hoechst 33342 efflux at 10 uM preincubated for 30 mins followed by Hoechst 33342 addition measured immediately at 60 sec time interval for 120 mins by fluorescence assay relative to XR9577
Format: cell-based, MDCK-II
conditions: MDCK2 cells expressing recombinant human GFP-fused ABCG2, probe Hoechst 33342, read-out: Imax
Numbers only, in %.

Below: 2 compounds and their reported Emax at 2 h, 10 µM.
| compound.smiles | number |
| --- | --- |
| CCCc1ccc(C(=O)Nc2ccccc2-c2nnn(-c3ccc(SC)cc3)n2)cc1 | 76 |
| COc1ccc(-n2nnc(-c3ccccc3NC(=O)c3ccccc3[N+](=O)[O-])n2)cc1 | 76 |

Quick one: give me Emax at 2 h, 10 µM for each item below, same order please.
1. O=C(Nc1ccccc1-c1nnn(-c2ccccc2)n1)c1ccc([N+](=O)[O-])cc1
2. CCCc1ccc(C(=O)Nc2ccccc2-c2nnn(-c3ccc(O)cc3)n2)cc1
3. COc1ccc(C(=O)Nc2ccccc2-c2nnn(-c3ccc(OC)cc3)n2)cc1
4. COc1ccc(-n2nnc(-c3ccccc3NC(=O)c3cccc([N+](=O)[O-])c3)n2)cc1
5. COc1ccc(C(=O)Nc2ccccc2-c2nnn(-c3ccc(C(C)C)cc3)n2)cc1
6. O=C(Nc1ccccc1-c1nnn(-c2ccccc2)n1)c1ccc(C(F)(F)F)cc1

Result:
1. 60
2. 106
3. 100
4. 57
5. 97
6. 100

Hey, just so you know, these numbers are from ChEMBL document CHEMBL3875173.
